Reported cell viability values for the following compounds.
System: KU-812
test: cell viability (% survival relative to DMSO control, bortezomib = 0%); higher = less cytotoxic
protocol-conditions: 100 nM; 72 h
Answer format: numeric, % implied, no suffix.

> print(dat)
                                   compound  units.label  assay.result
1  O[C@H]1[C@H](O)[C@@H](O)CN2CC[C@H](O)[C@H]12            %           105

Query :: Name the reported cell viability value associated with the compound "Fc1ccc(CNc2ncnc3ccc(F)cc23)cc1"
Result :: 94.5

Query :: Name the reported cell viability value associated with the compound "OC[C@H]1N[C@@H](c2c[nH]c3c(O)ncnc23)[C@H](O)[C@@H]1O"
Result :: 96.8

Query :: Name the reported cell viability value associated with the compound "Clc1cc(Cl)c(OCC#CI)cc1Cl"
Result :: 107

Query :: Name the reported cell viability value associated with the compound "O=C(/C=C/c1cccnc1)NCCCCC1CCN(C(=O)c2ccccc2)CC1"
Result :: 5.16

Query :: Name the reported cell viability value associated with the compound "CC(C)(O)CNc1nc(Nc2ccnc(C(F)(F)F)c2)nc(-c2cccc(C(F)(F)F)n2)n1"
Result :: 103

Query :: Name the reported cell viability value associated with the compound "O=c1oc2c(cc1O)oc(=O)c1cc(O)c(O)c(O)c12"
Result :: 90.7
